Reference source for all entries: PubChem BioAssay AID623911

# system-under-test: G protein-activated inward rectifier potassium channel 2 (Homo sapiens) + G protein-activated inward rectifier potassium channel 1 (Homo sapiens) (UniProt P48051+P48549)
# Sequence (P48051 whole entry, looked up): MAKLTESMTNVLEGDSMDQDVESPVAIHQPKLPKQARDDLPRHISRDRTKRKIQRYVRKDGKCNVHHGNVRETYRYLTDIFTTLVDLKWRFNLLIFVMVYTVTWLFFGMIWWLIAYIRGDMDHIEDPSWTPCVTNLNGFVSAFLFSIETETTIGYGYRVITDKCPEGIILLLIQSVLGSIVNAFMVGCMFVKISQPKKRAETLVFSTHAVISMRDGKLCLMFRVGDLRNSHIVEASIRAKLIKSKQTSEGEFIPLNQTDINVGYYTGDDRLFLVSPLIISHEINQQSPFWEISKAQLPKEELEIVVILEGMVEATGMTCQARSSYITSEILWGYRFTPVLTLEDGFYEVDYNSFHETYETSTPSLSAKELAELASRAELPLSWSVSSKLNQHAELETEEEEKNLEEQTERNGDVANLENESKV
# Sequence (P48549 whole entry, looked up): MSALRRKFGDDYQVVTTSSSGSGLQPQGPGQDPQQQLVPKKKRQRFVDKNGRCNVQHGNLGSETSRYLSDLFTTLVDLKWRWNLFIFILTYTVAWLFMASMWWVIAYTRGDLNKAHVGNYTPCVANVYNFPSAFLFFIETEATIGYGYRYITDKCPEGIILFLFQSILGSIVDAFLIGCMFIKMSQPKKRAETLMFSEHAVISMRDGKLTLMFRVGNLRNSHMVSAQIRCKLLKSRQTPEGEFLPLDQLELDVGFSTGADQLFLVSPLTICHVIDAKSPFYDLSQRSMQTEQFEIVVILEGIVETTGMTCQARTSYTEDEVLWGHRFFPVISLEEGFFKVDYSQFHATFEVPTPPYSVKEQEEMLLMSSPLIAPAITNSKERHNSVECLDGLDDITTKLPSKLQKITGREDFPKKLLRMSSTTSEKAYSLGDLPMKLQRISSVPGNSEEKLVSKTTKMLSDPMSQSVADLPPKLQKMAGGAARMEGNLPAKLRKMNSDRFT
# run-description: GIRK1/2 thallium flux modulators, retest, confirmation, cell-based, HEK293 rmGlu8/hGIRK1/2, FluoZin-2 (AID 623911)
# conditions-used: HEK293 rmGlu8/hGIRK1/2, thallium flux FluoZin-2; actives lie on both sides
About 770 (37%) of roughly 2,100 compounds were called active.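 The calls were made as follows: active = by-eye trace score of 1 for enhancers or -1 for inhibitors, so actives lie on both sides (some results past the limit were not filed as active); inactive = score 0, or 3 fluorescent, or 4 baseline rise.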 The list shows a part of the results.
Answer with one of the outcomes label 1 (active), label 0 (inactive)

Problem: Short answer needed: outcome of this test for `S=C1CN=C(c2ccccc2Cl)c2cc(Cl)ccc2N1` ?
Solution: label 1

Problem: Short answer needed: outcome of this test for CC(=NCC1CCCO1)c1c(O)n(-c2ccc(C)cc2)c(=O)[nH]c1=O (centres undefined) ?
Solution: label 0

Problem: Short answer needed: outcome of this test for `C/C(=N\Nc1ccccc1)c1c(O)n(C)c(=O)n(C)c1=O` ?
Solution: label 0

Problem: Short answer needed: outcome of this test for `CCN(CC)CCNCC(=O)Nc1ccc(Cl)cc1C(=O)c1ccccc1` ?
Solution: label 1

Problem: Short answer needed: outcome of this test for `CCN1/C(=C\C=C\C2=[N+](CC)c3ccccc3C2(C)C)C(C)(C)c2ccccc21` ?
Solution: label 0

Problem: Short answer needed: outcome of this test for `CNC(=O)OCCc1nccn1C` ?
Solution: label 0

Problem: Short answer needed: outcome of this test for `C=CCOC(=O)COc1cc(C)cc2oc(=O)c3c(c12)CCC3` ?
Solution: label 0

Problem: Short answer needed: outcome of this test for `CC(C)CCn1c(=O)c(C(=O)Nc2ccccc2S(N)(=O)=O)c(O)c2ccccc21` ?
Solution: label 0

Problem: Short answer needed: outcome of this test for `Cc1ccccc1C1=NCC(=S)Nc2ccc(Cl)cc21` ?
Solution: label 0

Problem: Short answer needed: outcome of this test for Nc1c(C(=O)OC2CCCCC2)c2nc3ccccc3nc2n1CC1CCCO1 (centres undefined) ?
Solution: label 0

Problem: Short answer needed: outcome of this test for Cc1nn(C)cc1/C=C1/CC2C3CC=C4CC(O)CCC4(C)C3CCC2(C)C1=O (centres undefined) ?
Solution: label 1

Problem: Short answer needed: outcome of this test for `Cn1cccc1CNCCc1ccccc1` ?
Solution: label 0

Problem: Short answer needed: outcome of this test for `O=C(Cc1ccccc1)N1CCN(C/C=C/c2ccccc2)CC1` ?
Solution: label 0

Problem: Short answer needed: outcome of this test for `CCCCn1c(C)c(C(=O)OCC)c2c(CN3CCOCC3)c(O)ccc21` ?
Solution: label 1

Problem: Short answer needed: outcome of this test for `N=c1sc2c(n1Cc1ccccc1)CCCC2` ?
Solution: label 1

Problem: Short answer needed: outcome of this test for `CC(C)N1C(=O)/C(=C/C=C/c2ccco2)C(=O)N(Cc2ccco2)C1=O` ?
Solution: label 0

Problem: Short answer needed: outcome of this test for `Cc1ccc2nc(N3CCC(C(=O)N4CCC5(CC4)OCCO5)CC3)sc2c1` ?
Solution: label 0

Problem: Short answer needed: outcome of this test for `CCOC(=O)C1=C(NC(=S)NC(=O)c2ccccc2)c2ccccc2CC12CCCC2` ?
Solution: label 0

Problem: Short answer needed: outcome of this test for `O=C(c1cc2ccccn2n1)N1CCC2(CC1)OCCO2` ?
Solution: label 0

Problem: Short answer needed: outcome of this test for `c1ccc2c(CNC3CCCCC3)c[nH]c2c1` ?
Solution: label 1

Problem: Short answer needed: outcome of this test for `Cc1ccc(OCC(=O)NCCN2CCN(C(=O)COc3ccc(C)cc3)CC2)cc1` ?
Solution: label 0

Problem: Short answer needed: outcome of this test for `S=C1CN=C(c2ccccc2)c2cc(Cl)ccc2N1` ?
Solution: label 0

Problem: Short answer needed: outcome of this test for `O=c1cc(C(F)(F)F)c2cc3c4c(c2o1)CCCN4CCC3` ?
Solution: label 0

Problem: Short answer needed: outcome of this test for `Cc1ccc(-c2nc(N(C)C3CCN(C)CC3)c3ccccc3n2)cc1` ?
Solution: label 0
